Test: qHTS assay to identify small molecule agonists of the estrogen related receptor (ERR) signaling pathway from Tox21 library (AID 1224849); also: % is scaled to controls: 0 for no effect and ±100 for the full control effect; nearly all actives have a fitted effect of over 15% in size
Settings: ERR reporter cell line, ONE-Glo luciferase, 18 h; at 42.5 µM (top of the series)
Active and inactive are the calls of the source. Calls follow the shape of the full dose curve.
measure: activity change, positive = activation

Query string: Returns the measured activity change, positive = activation for the input compound. Input: CC(C)(C)NCC(O)COc1ccccc1OCC1CCCO1 (stereo unspecified)
Result string: 4.72% (inactive)

Query string: Returns the measured activity change, positive = activation for the input compound. Input: CNC1(C)C2CCC(C2)C1(C)C (stereo unspecified)
Result string: 0.179% (inactive)

Query string: Returns the measured activity change, positive = activation for the input compound. Input: NC(N)=Nc1nc(CSCC/C(N)=N/S(N)(=O)=O)cs1
Result string: 8.96% (inactive)

Query string: Returns the measured activity change, positive = activation for the input compound. Input: CCN1CCCC1CNC(=O)c1cc(S(=O)(=O)CC)c(N)cc1OC (stereo unspecified)
Result string: 2.19% (inactive)

Query string: Returns the measured activity change, positive = activation for the input compound. Input: C#CC(C)(CC)OC(=O)c1ccccc1C(=O)O (stereo unspecified)
Result string: 0.513% (inactive)

Query string: Returns the measured activity change, positive = activation for the input compound. Input: Cc1c(O)cccc1C(=O)N[C@@H](CSc1ccccc1)[C@H](O)CN1C[C@H]2CCCC[C@H]2C[C@H]1C(=O)NC(C)(C)C
Result string: -54.6% (inactive)

Query string: Returns the measured activity change, positive = activation for the input compound. Input: CC(C)C(=O)c1c(C(C)C)nn2ccccc12
Result string: -9.6% (inactive)

Query string: Returns the measured activity change, positive = activation for the input compound. Input: N[C@@H]1CONC1=O
Result string: 7.16% (inactive)

Query string: Returns the measured activity change, positive = activation for the input compound. Input: O=C(O)Cn1cnnn1
Result string: 4% (inactive)

Query string: Returns the measured activity change, positive = activation for the input compound. Input: COc1ccc(CCN2CCC(Nc3nc4ccccc4n3Cc3ccc(F)cc3)CC2)cc1
Result string: -69.8% (inactive)

Query string: Returns the measured activity change, positive = activation for the input compound. Input: Cc1ccc(S(=O)(=O)Oc2ccc(N=Nc3ccc(-c4ccc(N=Nc5c(O)ccc6cc(S(=O)(=O)O)cc(S(=O)(=O)O)c56)c(C)c4)cc3C)cc2)cc1
Result string: -13.6% (inactive)

# credit: PubChem BioAssay (Tox21)
